Where do the numbers come from? From patent US20240270821A1.

# Target under test: T1, human GIP receptor (human) (UniProt P48546)
# T1 sequence (looked up): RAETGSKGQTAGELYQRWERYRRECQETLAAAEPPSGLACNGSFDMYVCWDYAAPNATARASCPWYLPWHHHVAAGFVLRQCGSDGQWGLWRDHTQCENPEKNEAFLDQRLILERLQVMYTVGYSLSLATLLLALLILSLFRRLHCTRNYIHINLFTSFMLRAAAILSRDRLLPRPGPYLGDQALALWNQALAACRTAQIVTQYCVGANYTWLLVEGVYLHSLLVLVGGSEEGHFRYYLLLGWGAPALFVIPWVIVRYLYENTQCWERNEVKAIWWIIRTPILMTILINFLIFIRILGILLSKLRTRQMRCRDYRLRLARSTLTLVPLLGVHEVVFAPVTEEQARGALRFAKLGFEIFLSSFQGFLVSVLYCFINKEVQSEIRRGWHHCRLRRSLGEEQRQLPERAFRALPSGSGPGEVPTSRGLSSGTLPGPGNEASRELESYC
# Test details: cell-based or functional assay
Entries and their measured Relative cAMP EC50 follow.
Supply the numeric figure in nM, leaving out any unit text.

Guide cases for Relative cAMP EC50, answers given:
- Binder: "YXQGTFTSDXSRXLDKKAQXAFIEYLIEXSPSSGAPPPSGS (synthetic construct; SITE 2: note = 2-Aminoisobutyric Acid; SITE 10: note = 3-(4-Pyridyl)-L-alanine; SITE 13: note = alpha-methyl-leucine; SITE 17: note = Lysine is chemically modified through conjugation of the epsilon-amino group of the Lysine side chain with (2-[2-(2-Amino-ethoxy)-ethoxy]-acetyl)) [Example 807]"
  Relative cAMP EC50 / nM: 0.108
- Binder: "YXQGTFTSDFSQXLDXKAQXAFIEYLLEAGPSSGAPPPSGSEEE (synthetic construct; SITE 2: note = 2-Aminoisobutyric Acid; SITE 13: note = alpha-methyl-leucine; SITE 16: note = L-ornithine; SITE 17: note = Lysine is chemically modified through conjugation of the epsilon-amino group of the Lysine side chain with (2-[2-(2-Amino-ethoxy)-ethoxy]-acetyl)-(gamma-Glu)) [Example 1038]"
  Relative cAMP EC50 / nM: 0.134

Now for the binder whose Relative cAMP EC50 we want.
### Prompt # return recorded Relative cAMP EC50 for input YXQGTXTSDXSILLDKKAQXAFIEYLEEGGPSSGAPPPSGTGE (synthetic construct; SITE 2: note = 2-Aminoisobutyric Acid; SITE 6: note = alpha-methyl-2-fluoro-L-phenylalanine; SITE 10: note = 3-(4-Pyridyl)-L-alanine; SITE 17: note = Lysine is chemically modified through conjugation of the epsilon-amino group of the Lysine side chain with (2-[2-(2-Amino-ethoxy))) [Example 662 (SEQ ID NO: 668)]
### Response 0.0704
